# MEASUREMENT_DESCRIPTION: toxicity in mice: body weight and observations after IP administration
# Assay type: in vivo
# EXPERIMENTAL_CONDITIONS: male mice, 400 mg/kg IP, day 5
MEASUREMENT_KIND: body weight (g)
Lab book: enter the figure in g, no units written.

Give recorded body weight. CC(C)c1ccc(-c2cn3nc(N4CCC(CN5CCN(CCO)CC5)CC4)sc3n2)cc1 [Compound E266]
39.6

====

# MEASUREMENT_DESCRIPTION: toxicity in mice: body weight and observations after IP administration
# Type: in vivo
# EXPERIMENTAL_CONDITIONS: female mice, 200 mg/kg IP, day 3
MEASUREMENT_KIND: body weight (g)
Give the value, in units of g, as a plain number.

Indicate its recorded body weight; the compound in question is CC(C)c1ccc(-c2cn3nc(N4CCC(CN5CCN(CCO)CC5)CC4)sc3n2)cc1 [Compound E266]
30.8

====

# MEASUREMENT_DESCRIPTION: toxicity in mice: body weight and observations after IP administration
# Assay type: in vivo
# EXPERIMENTAL_CONDITIONS: male mice, 100 mg/kg IP, day 10
MEASUREMENT_KIND: body weight (g)
# unit: g | format: bare number

Supply body weight value. Item: CC(C)c1ccc(-c2cn3nc(N4CCC(CN5CCN(CCO)CC5)CC4)sc3n2)cc1
37.2

====

# MEASUREMENT_DESCRIPTION: toxicity in mice: body weight and observations after IP administration
# Format: in vivo
# EXPERIMENTAL_CONDITIONS: female mice, 100 mg/kg IP, day 6
MEASUREMENT_KIND: body weight (g)
Give the quantity in g, number only.

Return body weight for the following compound: CC(C)c1ccc(-c2cn3nc(N4CCC(CN5CCN(CCO)CC5)CC4)sc3n2)cc1
33.9

====

# MEASUREMENT_DESCRIPTION: toxicity in mice: body weight and observations after IP administration
# Type: in vivo
# EXPERIMENTAL_CONDITIONS: female mice, 100 mg/kg IP, day 4
MEASUREMENT_KIND: body weight (g)
Please reply with the bare figure in g and do not write the unit itself.

For CC(C)c1ccc(-c2cn3nc(N4CCC(CN5CCN(CCO)CC5)CC4)sc3n2)cc1 , write its body weight.
35.2

====

# MEASUREMENT_DESCRIPTION: toxicity in mice: body weight and observations after IP administration
# Type: in vivo
# EXPERIMENTAL_CONDITIONS: female mice, 400 mg/kg IP, day 2
# Description: Compound (I) was dissolved in 20% hydroxypropylcyclodextrane and the volume of administration (IP) was 10 ml/kg.
MEASUREMENT_KIND: body weight (g)
Entry rule: numbers only, all in g.

Input CC(C)c1ccc(-c2cn3nc(N4CCC(CN5CCN(CCO)CC5)CC4)sc3n2)cc1 , output reported body weight.
30.5

====

# MEASUREMENT_DESCRIPTION: toxicity in mice: body weight and observations after IP administration
# Assay type: in vivo
# EXPERIMENTAL_CONDITIONS: male mice, 100 mg/kg IP, day 9
MEASUREMENT_KIND: body weight (g)
Record the value in g, omitting the unit from your answer.

Dear colleague, please send me the reported body weight for CC(C)c1ccc(-c2cn3nc(N4CCC(CN5CCN(CCO)CC5)CC4)sc3n2)cc1 [Compound E266] when you can.
36.8

====

# MEASUREMENT_DESCRIPTION: toxicity in mice: body weight and observations after IP administration
# Assay type: in vivo
# EXPERIMENTAL_CONDITIONS: female mice, 200 mg/kg IP, day 9
MEASUREMENT_KIND: body weight

Identify body weight associated with the molecule CC(C)c1ccc(-c2cn3nc(N4CCC(CN5CCN(CCO)CC5)CC4)sc3n2)cc1
30.6 g

====

# MEASUREMENT_DESCRIPTION: toxicity in mice: body weight and observations after IP administration
# Assay type: in vivo
# EXPERIMENTAL_CONDITIONS: male mice, 200 mg/kg IP, day 2
# Procedure: Compound (I) was dissolved in 20% hydroxypropylcyclodextrane and the volume of administration (IP) was 10 ml/kg.
MEASUREMENT_KIND: body weight

Annotate the compound CC(C)c1ccc(-c2cn3nc(N4CCC(CN5CCN(CCO)CC5)CC4)sc3n2)cc1 [Compound E266] with its measured body weight.
38.1 g

====

# MEASUREMENT_DESCRIPTION: toxicity in mice: body weight and observations after IP administration
# Type: in vivo
# EXPERIMENTAL_CONDITIONS: male mice, 200 mg/kg IP, day 6
# Description: Compound (I) was dissolved in 20% hydroxypropylcyclodextrane and the volume of administration (IP) was 10 ml/kg.
MEASUREMENT_KIND: body weight (g)
Please give a number only; it is taken to be in g.

Check the records and state body weight for CC(C)c1ccc(-c2cn3nc(N4CCC(CN5CCN(CCO)CC5)CC4)sc3n2)cc1
38

====

# MEASUREMENT_DESCRIPTION: toxicity in mice: body weight and observations after IP administration
# Type: in vivo
# EXPERIMENTAL_CONDITIONS: female mice, 200 mg/kg IP, day 15
MEASUREMENT_KIND: body weight (g)
// units = g; emit number, no label

Determine from records and report body weight for CC(C)c1ccc(-c2cn3nc(N4CCC(CN5CCN(CCO)CC5)CC4)sc3n2)cc1
30.5

====

# MEASUREMENT_DESCRIPTION: toxicity in mice: body weight and observations after IP administration
# Format: in vivo
# EXPERIMENTAL_CONDITIONS: male mice, 200 mg/kg IP, day 14
MEASUREMENT_KIND: body weight (g)
Give just the numeric value; g need not be written.

For the compound CC(C)c1ccc(-c2cn3nc(N4CCC(CN5CCN(CCO)CC5)CC4)sc3n2)cc1 , give its reported body weight.
38.8

====

# MEASUREMENT_DESCRIPTION: toxicity in mice: body weight and observations after IP administration
# Assay type: in vivo
# EXPERIMENTAL_CONDITIONS: female mice, 200 mg/kg IP, day 1
MEASUREMENT_KIND: body weight (g)
Express it in g; write the number only.

Report body weight, nothing else, for this compound: CC(C)c1ccc(-c2cn3nc(N4CCC(CN5CCN(CCO)CC5)CC4)sc3n2)cc1 [Compound E266]
31.5

====

# MEASUREMENT_DESCRIPTION: toxicity in mice: body weight and observations after IP administration
# Format: in vivo
# EXPERIMENTAL_CONDITIONS: male mice, 100 mg/kg IP, day 15
MEASUREMENT_KIND: body weight

Provide body weight value for the following compound: CC(C)c1ccc(-c2cn3nc(N4CCC(CN5CCN(CCO)CC5)CC4)sc3n2)cc1
36.6 g

====

# MEASUREMENT_DESCRIPTION: toxicity in mice: body weight and observations after IP administration
# Assay type: in vivo
# EXPERIMENTAL_CONDITIONS: female mice, 100 mg/kg IP, day 2
MEASUREMENT_KIND: body weight (g)
Lab book: enter the figure in g, no units written.

Entry CC(C)c1ccc(-c2cn3nc(N4CCC(CN5CCN(CCO)CC5)CC4)sc3n2)cc1 needs its body weight filled in; supply it.
35.7

====

# MEASUREMENT_DESCRIPTION: toxicity in mice: body weight and observations after IP administration
# Format: in vivo
# EXPERIMENTAL_CONDITIONS: male mice, 400 mg/kg IP, day 8
MEASUREMENT_KIND: body weight (g)
Kindly answer with a numeric value in g, unit omitted.

Consider the compound CC(C)c1ccc(-c2cn3nc(N4CCC(CN5CCN(CCO)CC5)CC4)sc3n2)cc1 . State its measured body weight.
40.7

====

# MEASUREMENT_DESCRIPTION: toxicity in mice: body weight and observations after IP administration
# Format: in vivo
# EXPERIMENTAL_CONDITIONS: male mice, 200 mg/kg IP, day 1
MEASUREMENT_KIND: body weight (g)
# output: bare number, implied unit g

Check the records and state body weight for CC(C)c1ccc(-c2cn3nc(N4CCC(CN5CCN(CCO)CC5)CC4)sc3n2)cc1
37.8

====

# MEASUREMENT_DESCRIPTION: toxicity in mice: body weight and observations after IP administration
# Assay type: in vivo
# EXPERIMENTAL_CONDITIONS: female mice, 400 mg/kg IP, day 6
MEASUREMENT_KIND: body weight (g)
// units = g; emit number, no label

Supply reported body weight belonging to this compound: CC(C)c1ccc(-c2cn3nc(N4CCC(CN5CCN(CCO)CC5)CC4)sc3n2)cc1
28.5

====

# MEASUREMENT_DESCRIPTION: toxicity in mice: body weight and observations after IP administration
# Assay type: in vivo
# EXPERIMENTAL_CONDITIONS: male mice, 100 mg/kg IP, day 7
MEASUREMENT_KIND: body weight
Answer format reminder: number followed by unit.

Give a short answer stating reported body weight for CC(C)c1ccc(-c2cn3nc(N4CCC(CN5CCN(CCO)CC5)CC4)sc3n2)cc1 .
37.4 g
